The values you see were collected from a melting point compilation (Tetko et al.; mined from patent text by program, amines drawn as free bases though some values may be those of a salt).

Known melting point of a selection of compounds

> print(dat)
                                   compound  recorded.result
1  O=C(OCC1CC1)c1ncn2c1[C@@H]1CCCN1C(=O)c1cc(F)ccc1-2    140 to 142 °C

Attention now turns to another entry.
Reported melting point ( COc1cc(C(=O)NS(=O)(=O)c2ccccc2C)ccc1Cn1ccc2ccc(CC(=O)NCC3CCCC3)cc21 ) = 187 to 188 °C

* * *

Measured metric: melting point

> print(dat)
                                   compound  recorded.result
1  COC(=O)c1ccc(C[C@@H]2COc3ccc(OCc4ccc5ccccc5n4)cc3[C@H]2O)cc1 (relative stereo)    138 to 140 °C
2      COc1ccc2c(c1)[C@H](c1ccccc1)CN(C)CC2      50 to 51 °C
3     COc1ccc([C@]2(O)OCC(C)(C)N[C@H]2C)cc1    170 to 172 °C
4  C[C@H]1[C@@H](O)C(C)(C)C(=O)N1c1ccc(C#N)c(C(F)(F)F)c1    120 to 121 °C

Reported melting point ( O=C(c1ccc(OS(=O)(=O)C(F)(F)F)cc1OS(=O)(=O)C(F)(F)F)c1ccc(OS(=O)(=O)C(F)(F)F)cc1OS(=O)(=O)C(F)(F)F ) = 94 to 96 °C

* * *

Measured metric: melting point

Consider the reported melting point for these compounds:
> print(dat)
                                   compound  measured.metric  recorded.result
1  COC(=O)[C@H]1CN(c2cc(F)c(N3CCSCC3)c(F)c2)C(=O)O1    melting point     99 to 101 °C
2  Cc1c(S(=O)(=O)Nc2ccc(-c3nc(CCl)cs3)cc2S(C)(=O)=O)sc2ccc(F)cc12    melting point    190 to 191 °C
3  CC(C)(C)OC(=O)N1CCC(c2nc(-c3ccncc3)c(-c3ccc(F)cc3)[nH]2)CC1    melting point    157 to 160 °C
4  CC(C)NC1=NS(=O)(=O)c2cc(F)c(NC(C)C)cc2N1    melting point    234 to 237 °C
5            Cc1cnc(C(=O)NC(C)C)c(C(=O)O)c1    melting point     95 to 105 °C

Reported melting point ( C=C(C)C(=O)OCCCCCc1ccc(C(F)(F)Oc2ccc(OC(F)(F)c3ccc(CCCCCOC(=O)C(=C)C)cc3)c(C)c2)cc1 ) = 26 °C

Reported melting point ( CC(=O)N(C)c1ccc(-c2cc3ccc(Br)cn3c2)cc1C ) = 197 to 198 °C

Reported melting point ( COc1ccccc1NC(=O)Nc1nc(N2CCCCC2)nc(N(CCC(=O)O)Cc2cccc(C)c2)n1 ) = 91 to 92 °C

Reported melting point ( CCCc1nc2c(N)nc3cc(-c4cccc(NC(C)=O)c4)ccc3c2s1 ) = 173 to 176 °C

Reported melting point ( CC(C)c1cccc(C(C)C)c1NC(=S)C1c2ccccc2COc2ccc(Br)cc21 (centres undefined) ) = 190 to 191 °C

* * *

Measured metric: melting point

Consider the reported melting point for these compounds:
> print(dat)
                                   compound  measured.metric  recorded.result
1             Oc1ccc(OCCn2nc3c(n2)CCCC3)cc1    melting point            93 °C
2        O=c1n(Cc2ccccc2)nc2n1C=Cc1ccccc1C2    melting point    133 to 134 °C
3  CC(=O)c1ccccc1NC(C)c1c(Cl)cccc1Cl (stereo unspecified)    melting point           123 °C
4  CC(C)(C)c1n[nH]c2c1C(C1CCCCC1)N(c1ccc(-c3ccon3)cc1)C2=O (stereo unspecified)    melting point    251 to 252 °C
5  O=CNc1cccc(-c2ccnc3c(C(=O)c4cccs4)cnn23)c1    melting point    233 to 236 °C
6  COc1ccc(CN2C(=O)C3(COc4cc5c(C)noc5cc43)c3ccccc32)cc1 (stereo unspecified)    melting point    183 to 184 °C
7       CSc1ccc(C=CC(=O)c2ccc(N(C)C)cc2)cc1    melting point           150 °C
8  COc1cc(C)c2c(c1OCC(=O)O)CC(C)(c1ccccc1)C2 (stereo unspecified)    melting point    151 to 152 °C

Reported melting point ( CC(=O)N1C(C(=O)NCCO[N+](=O)[O-])CSC1c1ccccc1 (stereo unspecified) ) = 103 to 105 °C

Reported melting point ( CN(c1ccncc1)c1ccccc1C(=O)N1CCCCC1 ) = 110 to 111 °C

Reported melting point ( Cc1ccc(C(=O)C(=O)c2ccncc2)cc1 ) = 65 °C

Reported melting point ( CN1C(=O)CC[C@]2(C)c3ccc(-c4ccc5ccccc5n4)cc3CC[C@@H]12 ) = 140 to 145 °C

Reported melting point ( Nc1ccc(CCCc2ccc(Nc3ccccc3C(=O)O)cc2)cc1 ) = 110 to 112 °C

Reported melting point ( CS(=O)(=O)c1ccc(-c2cc(CO[N+](=O)[O-])nn2C2CCCCCCC2)cc1 ) = 110 to 111 °C

Reported melting point ( Cc1ccccc1C(=O)Nc1ccc(C(=O)N2Cc3ccccc3Cc3ccccc32)cc1 ) = 198 to 203 °C

Reported melting point ( CNC(=O)c1ccc(-c2ccc(NC(=O)NCc3cccnc3)cc2)nc1NCCN(C)C ) = 163 to 165 °C

Reported melting point ( Cc1nc(N2C(=O)N(Cc3ccc(F)cc3)CC2O)sc1C(=O)NCc1ccccc1 (stereo unspecified) ) = 133 to 134 °C

* * *

Known melting point of a selection of compounds

> print(dat)
                                   compound  measured.metric  recorded.result
1  COCCOCCOCCOCCOc1cc(NC(=O)OC(C)(C)C)c(NC(=O)CC(=O)c2cccc(C#N)c2)cc1C#Cc1ccccc1    melting point    135 to 136 °C
2  C=CCSC1(C(F)(F)F)C=NC(=O)Nc2ccc(Cl)cc21 (stereo not given)    melting point    147 to 149 °C

Reported melting point ( N#Cc1cccc(-c2nc(=O)c3ccccc3s2)c1 ) = 200 °C

Reported melting point ( Oc1ccc(OCCCCCCBr)cc1 ) = 43 to 45 °C

Reported melting point ( N#CCN1C2CCC1CC(OC(c1ccccc1)c1ccccc1)C2 (stereo not given) ) = 94 to 97 °C

* * *

Measured metric: melting point

Reported melting point ( O=C(O)CCCCCNC(=O)c1cn2c3c(cccc13)CCC2 ) = 158 to 161 °C

* * *

Known melting point of a selection of molecules

> print(dat)
                                    molecule  recorded.result
 1  NCc1ccc(CC(=O)Nc2cccc(C(=O)NCCC(=O)O)c2)cc1    108 to 109 °C
 2  CCOC(=O)c1csc(-c2ccc3cc(O)c(C45CC6CC(CC(C6)C4)C5)cc3c2)c1    199 to 200 °C
 3  COc1cc2c(cc1Nc1ncc(Cl)c(N[C@@H]3CCCC[C@H]3NS(C)(=O)=O)n1)CCN(CC(F)(F)F)CC2    103 to 110 °C
 4  N#Cc1ccc(-c2c3c(cc4ccc(O)cc24)-c2ccc(O)cc2CO3)cc1         > 250 °C
 5  CCCCCCCCCCCCCCCCCCCC(=O)Nc1ccc(NC(=O)NS(=O)(=O)c2ccc3ccccc3c2)cc1           179 °C
 6  COc1cc(C(O)(C(F)(F)F)C(F)(F)F)cc(C)c1NS(C)(=O)=O    109 to 110 °C
 7  Cn1c(CCN2CCN(c3cccc(C(F)(F)F)c3)CC2)nc2cc(Br)c3ccccc3c21    165 to 166 °C
 8  NNC1=NC2CCCc3cccc(c32)N1 (stereo not given)    191 to 193 °C
 9                CC(C)(C)C(=O)c1cnn2cccnc12    130 to 131 °C
10         Cc1ccc(C)c(NC(=O)N2CCC(C#N)CC2)c1    187 to 190 °C

Reported melting point ( COc1cccc2c1C(c1ccc(Cl)cc1)NC(=O)C2 (stereo not given) ) = 250 to 251 °C

Reported melting point ( CCOC(=O)c1ccc([N+](=O)[O-])cc1CBr ) = 65 to 66 °C

* * *

Known melting point of a selection of compounds

> print(dat)
                                   compound  recorded.result
1         CCOC(=O)c1ccc(C2=CCCc3ccccc32)cc1            81 °C
2  CC(=C1C(=O)N(c2cccc(C)c2)c2ccccc21)N(C)C      96 to 99 °C

Reported melting point ( O=C(CBr)Nc1ccc(F)cc1C(=O)c1ccccc1Br ) = 110 to 114 °C

Reported melting point ( CC(C)c1c(C(=O)Nc2ccc(O)cc2)c(-c2ccccc2)c(-c2ccc(F)cc2)n1CC[C@@H]1C[C@@H](O)CC(=O)O1 ) = 130 to 133 °C

Reported melting point ( CC1CCCN(CC(O)c2ccccc2)C1 (stereo unspecified) ) = 70 °C

Reported melting point ( CC(C)n1c(=O)c2cc(C(=O)O)cn2c2ccccc21 ) = 238 to 240 °C

Reported melting point ( CN(C)CCC(=O)c1c(-c2ccccc2)[nH]c2ccccc12 ) = 136 to 138 °C

Reported melting point ( CCOC(=O)COc1ccc(O)c(Cl)c1 ) = 80 to 82 °C
